B1: TPR t1 (parent)
chain: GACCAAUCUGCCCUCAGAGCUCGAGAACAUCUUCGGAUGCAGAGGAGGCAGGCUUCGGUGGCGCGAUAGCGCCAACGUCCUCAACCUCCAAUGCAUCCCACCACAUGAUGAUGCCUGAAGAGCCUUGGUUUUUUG

Variants of: B1
Experiment: polymerase ribozyme fitness, log enrichment relative to wild type (log ratio); higher = more active; in vitro selection for triplet polymerase activity
endpoint_label: polymerase ribozyme fitness (log ratio)
Answer as a number with no unit attached.

Example results:
>>> measurement("GACCAAUCUGCCCUCAGAGCUCGAGAACAUCUUCGGAUGCAUAGGAGGGAGGCUUCGGUGGCGCGAUAGCGCCAACGUCCUCAACCUCCAAUGCAUCCCACCACAUGAUGAAGCCUGAAGAGCCUUGGUUUUUUG [G42U C49G U112A]")
-0.357
>>> measurement("GACCAGUCUGCCCUCAGAGCUCGAGAACAUCUUCGGAUGCAGAGGAGGCAGGCUUCGGUGGCGCGAUAGCGACAACGUACUCAACCUCCAAUGCAUCCCACUACAUGAUGAUGCCUGUAGAGCCUUGGUUUUUUG [A6G C72A C79A C102U A118U]")
-2.3
>>> measurement("GACCAAUCUGCCCUCAGAGCUCGAGAACGUCUUCGGAUGCAGAGGAGGCAGGCUUCGGUGGCGCGAUAGCGCAAACGUCCUCAACCUCCAAUGCAUCCCACCACAUGAUGAUGCCUGAAGAGCCUUGGUUUUUUG [A29G C73A]")
-1.67

stdin: Tell me polymerase ribozyme fitness (log ratio) reported for GACCAAUCUGCUCUCAGAGCUCGAGAACAUCUUCGGAGGCAGAGGAGGCAGGCUUCGGUGGUGCGAUAGCGCCAAUGUACUCAACCUCCAAUGCAUCCCACCACAUGAUGAUGCCUGAAGAGCCUUGGUUUUUUG [C12U U38G C62U C76U C79A]
stdout: -1.79

stdin: Tell me polymerase ribozyme fitness (log ratio) reported for GACCAAUCUGCCCUCAGAGCUCGAGAACAACUUCGGAUGCAGAGGAGCCAGGCUUCGGUGGCUCGAUAGCGCCAACGUCCUCAACCUCCAAUGCAUCCCACCACAUGAUGAUGCCUGAAGAGCAUUGGUUUUUUG [U30A G48C G63U C124A]
stdout: -5.12

stdin: Tell me polymerase ribozyme fitness (log ratio) reported for GACCAAUCUGCACUCAGAGCUCGAGAAUAUCUUCGGAUGCAGAGGAGGCAGGCUUCGGUGGCGCGAUAGCGCCAACGUCCUCAACUUUCAAUGCAUCCCAACACAUGAUGCUGCCUGAAGAGCCUUGGUUUUUUG [C12A C28U C86U C88U C101A A111C]
stdout: -7.09

meta.source: the RNAGym collection of RNA variant scans (doi:10.1073/pnas.2313332121)
